The origin of these recorded values is patent US20250099420A1.

Biological target: GPR139 (Homo sapiens, UniProt Q6DWJ6)
Sequence (Q6DWJ6 whole entry): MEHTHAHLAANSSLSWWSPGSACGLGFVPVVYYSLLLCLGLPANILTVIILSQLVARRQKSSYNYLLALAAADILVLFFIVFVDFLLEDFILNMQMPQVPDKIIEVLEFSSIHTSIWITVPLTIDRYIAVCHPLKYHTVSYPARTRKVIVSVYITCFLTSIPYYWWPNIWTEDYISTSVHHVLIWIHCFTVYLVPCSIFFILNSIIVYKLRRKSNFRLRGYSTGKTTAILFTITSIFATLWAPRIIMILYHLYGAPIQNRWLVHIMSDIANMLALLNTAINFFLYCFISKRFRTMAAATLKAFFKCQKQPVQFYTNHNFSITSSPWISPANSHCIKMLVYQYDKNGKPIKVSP
Assay: GPR139 Antagonist titration assay (calcium detection, HEK-GPR139 cells, vs EC80 of S-JNJ-63533054)
parameter: GPR139 Antagonist Activity Ligand Efficiency

The observed GPR139 Antagonist Activity Ligand Efficiency for Cc1cc(C(F)(F)F)nc(SCC(=O)Nc2cccc(C(F)(F)F)c2)c1C#N when tested with GPR139 (Homo sapiens, UniProt Q6DWJ6) stands at 0.24

COc1cccc(OC)c1C(=O)Oc1ccc2c(=O)c(-c3ccc(Cl)cc3)c(C(F)(F)F)oc2c1 on GPR139 (Homo sapiens, UniProt Q6DWJ6) gives GPR139 Antagonist Activity Ligand Efficiency = 0.24

Item: COc1ccc(-c2cccc(NS(=O)(=O)c3ccc(I)cc3)c2)nn1 | System: GPR139 (Homo sapiens, UniProt Q6DWJ6) | GPR139 Antagonist Activity Ligand Efficiency: 0.29

1 = CC(=O)N1N=C(c2ccc(C)cc2)CC1c1ccccc1Cl (centres unmarked)
2 = COc1ccc(-c2noc(CN3CCCN(c4ccc(F)cc4)CC3)n2)c(OC)c1OC
Q: Select one: 1 or 2 . Criterion: greater recorded GPR139 Antagonist Activity Ligand Efficiency. Give the chosen item's label as your response.
Result: 1
(1: 0.32, 2: 0.22)
